# System: SK-MEL-28 melanoma
# measurement-notes: NCI tumour cell line growth inhibition, 48 h

compound	subject-of-test	TGI
Cc1cc(Cl)cc2c1NC(=O)C2(O)CC(=O)c1ccc(F)cc1 (centres undefined)	SK-MEL-28 melanoma	> 100 µM
CN1C(=O)C(C#N)C2C[C@@]1(C)Oc1ccccc12 (some centres undefined)	SK-MEL-28 melanoma	> 100 µM
CN(N=O)C(=O)Nc1ccc(C(=O)O)cc1	SK-MEL-28 melanoma	> 100 µM
CN(C)c1cccc(/C=C(\C#N)c2ccccc2)c1	SK-MEL-28 melanoma	> 100 µM
O=C1Nc2ccccc2/C1=N/N1C(=O)/C(=C/c2ccccc2S)N=C1c1ccccc1	SK-MEL-28 melanoma	> 100 µM
Cc1nnc2n1N=C(c1ccc(-c3ccc([N+](=O)[O-])cc3)o1)CS2	SK-MEL-28 melanoma	> 100 µM
C=C1C(=O)O[C@H]2[C@H]1CC/C(COC(=O)C(=O)c1c[nH]c3ccc(Cl)cc13)=C\CC[C@@]1(C)O[C@@H]21	SK-MEL-28 melanoma	3.92 µM
CCOC(=O)C1=C(C)N(NC(=O)OC)C2(N)N(NC(=O)OC)C(C)=C(C(=O)OCC)C12C#N (centres undefined)	SK-MEL-28 melanoma	> 100 µM
NC1=NCC(c2ccccn2)C1c1ccc(F)cc1 (centres undefined)	SK-MEL-28 melanoma	> 100 µM
O=C([CH-]C(=O)c1ccccc1)c1ccccc1.[CH3-].[CH3-].[CH3-].[Sn+4]	SK-MEL-28 melanoma	47.1 µM
O=C(/C=C/c1ccc(O)cc1)c1cc(-c2cc(CCC(=O)c3ccc(O)cc3O)ccc2O)c(O)cc1O	SK-MEL-28 melanoma	> 50 µM
O=c1[nH]cc(COCC(O)CO)c(=O)[nH]1 (centres undefined)	SK-MEL-28 melanoma	> 100 µM
O=C1OC(C2Cc3ccc4c(c3C2=O)CCCC4)c2ccccc21 (centres undefined)	SK-MEL-28 melanoma	> 100 µM
COC1C(O)CC(OC2CC(OC3CC(O[C@@H]4C(=O)c5c(cc6cc(OC7CC(OC8CC(O)C(O)C(C)O8)C(O)C(C)O7)c(C)c(O)c6c5O)C[C@H]4[C@H](OC)C(=O)[C@@H](O)[C@@H](C)O)OC(C)C3O)OC(C)C2O)OC1C (some centres undefined)	SK-MEL-28 melanoma	0.0224 µM
COc1ccc(C2SCC(=O)N2NC(=O)C(O)c2ccccc2)cc1 (centres undefined)	SK-MEL-28 melanoma	> 100 µM
C=C1[C@@H](O)C[C@H]2C(C)(C)C[C@H](Cl)C[C@]2(C)[C@H]1C[C@H](O)[C@H]1CC(=O)NC1=O	SK-MEL-28 melanoma	0.127 µM
CNC(=O)OCc1nc(N=[N+]=[N-])n(C)c1COC(=O)NC	SK-MEL-28 melanoma	> 100 µM
CC(=O)c1c(C)cc2cccc(OC3OC(CO)C(O)C(O)C3O)c2c1O (centres undefined) (tested in a mixture with another compound)	SK-MEL-28 melanoma	> 100 µM
CC1CN=C(NS(=O)(=O)c2cc(C(=O)Nc3ccccc3)c(Cl)cc2S)NN1 (centres undefined)	SK-MEL-28 melanoma	> 100 µM

====

Entries annotated with measured TGI
# Test system: PC-3 prostate
# measurement-notes: NCI tumour cell line growth inhibition, 48 h

compound	subject-of-test	TGI
C[C@@H]1CC[C@@H]2[C@@H]1[C@H](OC(=O)c1ccc3ccccc3c1)[C@]1(C3CCCCC3)C[C@@H](OC(=O)CO)[C@@]2(C)O1	PC-3 prostate	19.2 µM
N#CCCN(CCCN(C(=O)Nc1ccc(NC(=O)N(CCCN(CCC#N)C(N)=O)c2ccccc2)cc1)c1ccccc1)C(N)=O	PC-3 prostate	> 100 µM
COC(=O)C1=CO[C@@H](OC2OC(CO)C(O)C(O)C2O)[C@@H]2[C@H](C)[C@@H](O)[C@@H](O)[C@]12O (stereo partly specified)	PC-3 prostate	> 100 µM
CC(=O)N1N=C(c2ccc(Nc3nc(Nc4ccc(F)cc4)nc(Nc4ccc(Cl)cc4)n3)cc2)CC1c1ccc(N(C)C)cc1 (stereo unspecified)	PC-3 prostate	> 64.8 µM
O=C1CC2(CCNCC2)C(=O)N1N1CCCCC1	PC-3 prostate	> 100 µM
C[N+]1(c2ccccc2)C=C(c2ccccc2)SC1=S (stereo unspecified)	PC-3 prostate	> 100 µM

====

# System: DU-145 prostate
# measurement-notes: NCI tumour cell line growth inhibition, 48 h; in the data active means GI50 below about 0.43 µM; inactive means the rest
Outcome codes: label 1 = active, label 0 = inactive

item-smiles	subject-of-test	label-class
COc1cc2c(c(OC)c1OC)C(=O)c1c-2n(CCCN=[N+]=[N-])c(=O)c2cc([N+](=O)[O-])ccc12	DU-145 prostate	label 0
CCCC(=O)O[C@]1(C)CC[C@@H]2[C@H]3[C@@H]1[C@@H]1C/C(C)=C\CC[C@](C)(OC(=O)[C@@H]2C)[C@H]3O1	DU-145 prostate	label 0
c1ccc2c(-c3cnn4cc(-c5ccc(N6CCNCC6)cc5)cnc34)ccnc2c1	DU-145 prostate	label 0
CCOc1ccc2c(c1)C(=O)c1c-2n(CCCN)c(=O)c2cc([N+](=O)[O-])ccc12	DU-145 prostate	label 1

====

# System: NCI/ADR-RES ovarian
# measurement-notes: NCI tumour cell line growth inhibition, 48 h
attribute-measured: log10(TGI) (log10 of the value in µM)

compound	attribute-measured	recorded-result
c1ccc2c(-c3cnn4cc(-c5ccc(N6CCNCC6)cc5)cnc34)ccnc2c1	log10(TGI)	0.53
CN(C(=O)c1cc2c(s1)sc1c(=O)n(C)c3ccccc3c12)c1ccccc1	log10(TGI)	1.89
CC(=O)OC1CC2(O)C(CCC3(C)C(c4ccc(=O)oc4)CCC32O)C2(C)CCC(OC3OC(CO)C(O)C(O)C3O)C=C12 (stereo not drawn)	log10(TGI)	-1.27
CNC1=CC(=O)C2=C(C1=O)C1C3=C(C(=O)C(Br)=C(OC)C3=O)C2c2ccccc21 (stereo not drawn)	log10(TGI)	0.91
Cc1cccc(/C=C2/C(=O)Nc3ccccc32)n1	log10(TGI)	1.73
CC(C)c1ccc(/C=N/N=C(N)N)cc1	log10(TGI)	1.37
O=C1c2ccccc2C(=O)c2sc(Nc3ccc(Cl)cc3)nc21	log10(TGI)	0.74
OCC#CCCCCOCC#Cc1ccccc1C#CCOCCCCC#CCO	log10(TGI)	1.76
Cc1nc2ccccc2c(/C=C/c2ccccc2)c1C(=O)/C=C/c1ccc(Cl)cc1	log10(TGI)	0.69
Cc1ccc(S(=O)(=O)N[C@@H](Cc2ccccc2)C(=O)CCl)cc1	log10(TGI)	1.82
CC(C)=CC[C@H]1C[C@@]2(CC=C(C)C)C(=O)/C(=C(/O)c3ccccc3)C(=O)[C@](CC=C(C)C)(C2=O)C1(C)C	log10(TGI)	1.63
C=C1[C@@H](O)C[C@H]2C(C)(C)C[C@H](Cl)C[C@]2(C)[C@H]1C[C@H](O)[C@H]1CC(=O)NC1=O	log10(TGI)	-0.29
O=C(/C=C/c1ccccc1Br)c1ccccc1	log10(TGI)	1.25
CC(=O)[O][Hg][CH2]C1(C)COC(C)([CH2][Hg][O]C(C)=O)CO1 (stereo not drawn)	log10(TGI)	1.66

====

Entries annotated with measured GI50
# Test system: A498 renal
# measurement-notes: NCI tumour cell line growth inhibition, 48 h

compound	GI50
OCC#CCCCCOCC#Cc1ccccc1C#CCOCCCCC#CCO	4.35 µM
CCOc1ccc(NC(=O)c2cc3ccccc3cc2O)cc1	86.4 µM
CC1=C/C(O)CC(=O)Cc2nc(co2)C(=O)N2CCC=C2C(=O)OC(C(C)C)C(C)/C=C\C(=O)NC/C=C\1 (stereo not given)	44.9 µM
CC(C)c1ccc(/C=N/N=C(N)N)cc1	11.3 µM
Cc1ccc(NC(=O)N2CCCCC2)cc1[N+](=O)[O-]	87.8 µM
COc1ccc(C2CC(c3cccc(OC)c3)=NN2C(=O)c2cc(OC)c(OC)c(OC)c2)cc1 (stereo not given)	1.12 µM
CCOc1ccc2c(c1)C(=O)c1c-2n(CCCN)c(=O)c2cc([N+](=O)[O-])ccc12	0.679 µM
c1ccc2c(-c3cnn4cc(-c5ccc(N6CCNCC6)cc5)cnc34)ccnc2c1	1.43 µM
CCCCCCCCc1ccc(CCC(N)(CO)CO)cc1	3.34 µM
O=C1Nc2ccc(CN3CCOC3=O)cc2/C1=C/c1cc(CN2CCOCC2)c[nH]1	> 45.2 µM

====

# Tested on: HOP-92 NSCLC
# measurement-notes: NCI tumour cell line growth inhibition, 48 h; in the data active = GI50 below about 0.43 µM; inactive = the rest
Outcome codes: active, inactive

molecule	label-class
CC1=C/C(O)CC(=O)Cc2nc(co2)C(=O)N2CCC=C2C(=O)OC(C(C)C)C(C)/C=C\C(=O)NC/C=C\1 (stereo unspecified)	inactive
COc1ccc(C2CC(c3cccc(OC)c3)=NN2C(=O)c2cc(OC)c(OC)c(OC)c2)cc1 (stereo unspecified)	inactive
CCOc1ccc2c(c1)C(=O)c1c-2n(CCCN)c(=O)c2cc([N+](=O)[O-])ccc12	active
c1ccc2c(-c3cnn4cc(-c5ccc(N6CCNCC6)cc5)cnc34)ccnc2c1	inactive
O=C1c2ccccc2C(=O)c2sc(Nc3ccc(Cl)cc3)nc21	inactive
CSC(=NC#N)S/C=C/C(=O)c1cccc2ccccc12	inactive
COc1ccc2c(c1)C(=O)c1c-2n(CCCN=[N+]=[N-])c(=O)c2cc(N)ccc12	inactive
C[CH2][Ge]([CH2]C)([CH2]C)[O]C(=O)C([O][Ge]([CH2]C)([CH2]C)[CH2]C)c1ccccc1 (stereo unspecified)	inactive
COc1cc2oc(-c3cccc(C(=O)Nc4ccc(C)cc4)c3)cc(=O)c2c(OC)c1OC	inactive
Cn1ccc2c3c(=O)cc[nH]c3ccc21	inactive
COc1cc(/C=C2\CCCC3=C2N=C2SC(C)=CN2C3c2cc(OC)c(OC)c(OC)c2)cc(OC)c1OC (stereo unspecified)	inactive
C=C1[C@@H](O)C[C@H]2C(C)(C)C[C@H](Cl)C[C@]2(C)[C@H]1C[C@H](O)[C@H]1CC(=O)NC1=O	active
Cc1ccc(NC(=O)N2CCCCC2)cc1[N+](=O)[O-]	inactive
CCOC(=O)Nc1ccc(C(=O)/C=C/c2ccccc2)cc1	inactive
COC(=O)c1ccc(NC(N)=NCC(C)(C)COc2ccc(C(F)(F)F)cc2)nc1	inactive
C[n+]1cc2cc3c(cc2c2ccccc21)OCO3	inactive
